# System: full length human vWF binding to lyophilized platelets
# assayRemarks: Full length human von Willebrand Factor platelet binding assay (FACS)
# Type: cell-based
# reportedConditions: 5 nM full length human vWF, lyophilized platelets, botrocetin; both bounds in nM
Oligonucleotides are written 5' to 3', each unit as a sugar letter and its base; * is a phosphorothioate linkage, no mark a phosphodiester; rarer units and linkages stand in square brackets, end groups in braces. Plain capitals give the bases only. d = 2'-deoxy (DNA); r = 2'-OH (RNA)
endpointLabel: Inhibition of full length hVWF binding in FACS assay, IC50 range

- molecule: "AMX205.H8: rRdY aptamer clone (nucleic acid) rGrGrArGdCrGdCrAdCdTdCrArGdCdCrAdCrArArAdCrGrGrAdCrGrGdTrGrAdTrGrGrAdTdTrArAdCrGdCrGrGrGdTdTdTrAdTrGrGdCrArArGrGdTdTdTdCrGrAdCdCdTdCdTdCdTrGdCdTrArGdC"
  testValue: "no activity"
- molecule: "AMX206.A10: rRdY aptamer clone (nucleic acid) rGrGrArGdCrGdCrAdCdTdCrArGdCdCrAdCrGrGdCrAdTrGrAdCrGrGdTrGrAdTrGrArAdTdTrArGdCrGdCrGrGdTrGdTdCrGrGdTrGrGdTrGdTdCrAdTdTdTdCrGrAdCdCdTdCdTdCdTrGdCdTrArGdC"
  testValue: "no activity"
- molecule: "AMX205.F9: rRdY aptamer clone (nucleic acid) rGrGrArGdCrGdCrAdCdTdCrArGdCdCrAdCrGrGrArGdCrGdTdCrGrGdTrGrAdTrGrGrAdTdTrArGdCrGdCrGrGdCdTdCdCrGdTrGrGdTrAdCrGdCdCdTdTdTdCrGrAdCdCdTdCdTdCdTrGdCdTrArGdC"
  testValue: "no activity"
